Test system: HIV-1
Test: NCI in vitro anti-HIV drug screen: XTT-formazan assay, protection of T4 lymphocytes (CEM) from HIV-1 cytopathic effects
Type: cell-based, human immunodeficiency virus (HIV-1)
Conditions: Human immunodeficiency virus 1, Lymphocyte, dose 6.35 × 10^-8 Molar; read-out: Percent of Control, Infected
Method: Compounds of the present invention were evaluated for anti-HIV efficacy by the National Cancer Institute's (NCI) In Vitro Anti AIDS Drug Discovery Program. The NCI procedure is fully described, for example, in a bulletin provided by the National Institutes of Health, National Cancer Institute, Bethesda, Md. 20892, all of which is incorporated herein by reference. […]
Recorded activity at 0.0635 µM, one value per entry.
measuredMetric: activity at 0.0635 µM

INSERT INTO results (linenotation, result) VALUES
  ('CNc1ccc(S(=O)(=O)c2ccccc2[N+](=O)[O-])cc1C', '12.5%'),
  ('CN(c1ccccc1)S(=O)(=O)c1cccc([N+](=O)[O-])c1', '3.37%'),
  ('O=[N+]([O-])c1ccccc1S(=O)(=O)c1cccc2c1NCCC2', '0.39%'),
  ('CNc1ccc(S(=O)(=O)c2ccccc2[N+](=O)[O-])cc1Cl', '16.7%'),
  ('CNc1ccccc1S(=O)(=O)c1ccc(Cl)cc1OC', '2.03%'),
  ('CNc1ccccc1S(=O)(=O)c1ccccc1Cl', '48.1%'),
  ('CCNc1ccccc1S(=O)(=O)c1ccccc1[N+](=O)[O-]', '36.1%');

* * *

Recorded inhibition at 200 µM, one value per entry.
System: HIV-1
Assay: NCI in vitro anti-HIV drug screen: XTT-formazan assay, protection of T4 lymphocytes (CEM) from HIV-1 cytopathic effects
Format: cell-based, human immunodeficiency virus (HIV-1)
Settings: Human immunodeficiency virus 1, CCRF-CEM, dose 2.00 × 10^-4 Molar; read-out: Percent of Protection
measuredMetric: inhibition at 200 µM

INSERT INTO measurements (compound, result) VALUES
  ('CNc1ccc(Cl)cc1S(=O)(=O)c1ccccc1[N+](=O)[O-] [Compound 72]', '74%'),
  ('CNc1ccc(S(=O)(=O)c2ccccc2[N+](=O)[O-])cc1Cl [Compound 77]', '100%'),
  ('CN(c1ccccc1)S(=O)(=O)c1cccc([N+](=O)[O-])c1 [Compound 14]', '5.28%'),
  ('CNc1ccc(S(=O)(=O)c2ccccc2[N+](=O)[O-])cc1C [Compound 79]', '10.7%'),
  ('O=S(=O)(c1ccccc1)c1cccc2c1NCCC2 [Compound 45]', '42.2%'),
  ('CCNc1ccccc1S(=O)(=O)c1ccccc1[N+](=O)[O-] [Compound 81, 2-(2-NITROPHENYLSULFONYL)-N-ETHYLANILINE]', '17.2%'),
  ('Cc1ccc(N(C)S(=O)(=O)c2ccccc2[N+](=O)[O-])cc1 [Compound 31]', '-0.58%'),
  ('CNc1ccccc1S(=O)(=O)c1ccc(Cl)cc1OC [Compound 86]', '78.8%'),
  ('CNc1ccccc1S(=O)(=O)c1ccccc1Cl [Compound 82]', '3.76%'),
  ('CNc1ccc(Cl)cc1S(=O)(=O)c1ccccc1 [Compound 57]', '22%'),
  ('O=[N+]([O-])c1ccccc1S(=O)(=O)c1cccc2c1NCCC2 [Compound 46]', '-0.28%'),
  ('CN(c1ccccc1Cl)S(=O)(=O)c1ccccc1[N+](=O)[O-] [Compound 38]', '2.73%');

* * *

System: HIV-1
Assay: NCI in vitro anti-HIV drug screen: XTT-formazan assay, protection of T4 lymphocytes (CEM) from HIV-1 cytopathic effects
Format: cell-based, human immunodeficiency virus (HIV-1)
Conditions: Human immunodeficiency virus 1, Lymphocyte, dose 6.35 × 10^-8 Molar; read-out: Percent of Control, Infected
measuredMetric: activity at 0.0635 µM (%)

INSERT INTO assay_data (linenotation, valueunits, number) VALUES
  ('CN(c1ccccc1Cl)S(=O)(=O)c1ccccc1[N+](=O)[O-]', '%', 4.74),
  ('Cc1ccc(N(C)S(=O)(=O)c2ccccc2[N+](=O)[O-])cc1', '%', 1.67),
  ('CNc1ccc(Cl)cc1S(=O)(=O)c1ccccc1[N+](=O)[O-]', '%', 47.1),
  ('CNc1ccc(Cl)cc1S(=O)(=O)c1ccccc1', '%', 5.77),
  ('O=S(=O)(c1ccccc1)c1cccc2c1NCCC2', '%', 0.49);

* * *

Test system: HIV-1
Assay: NCI in vitro anti-HIV drug screen: XTT-formazan assay, protection of T4 lymphocytes (CEM) from HIV-1 cytopathic effects
Type: cell-based, human immunodeficiency virus (HIV-1)
Settings: Human immunodeficiency virus 1, Lymphocyte, dose 2.00 × 10^-6 Molar; read-out: Percent of Control, Infected
Recorded activity at 2 µM, one value per entry.
measuredMetric: activity at 2 µM (%)

INSERT INTO assay_data (linenotation, experimentalsystem, number) VALUES
  ('CN(c1ccccc1Cl)S(=O)(=O)c1ccccc1[N+](=O)[O-]', 'HIV-1', 14.9),
  ('O=S(=O)(c1ccccc1)c1cccc2c1NCCC2', 'HIV-1', 4.44),
  ('CN(c1ccccc1)S(=O)(=O)c1cccc([N+](=O)[O-])c1', 'HIV-1', 6.97),
  ('Cc1ccc(N(C)S(=O)(=O)c2ccccc2[N+](=O)[O-])cc1', 'HIV-1', 14.4),
  ('O=[N+]([O-])c1ccccc1S(=O)(=O)c1cc(Cl)cc2c1NCCC2', 'HIV-1', 88.8),
  ('Cc1cc2c(c(S(=O)(=O)c3ccccc3[N+](=O)[O-])c1)NCCC2', 'HIV-1', 106),
  ('CNc1ccc(S(=O)(=O)c2ccccc2[N+](=O)[O-])cc1Cl', 'HIV-1', 100),
  ('O=[N+]([O-])c1ccccc1S(=O)(=O)c1cccc2c1NCCC2', 'HIV-1', 70),
  ('CNc1c(Cl)cccc1S(=O)(=O)c1ccccc1[N+](=O)[O-]', 'HIV-1', 94.1);

* * *

Tested on: HIV-1
Assay: NCI in vitro anti-HIV drug screen: XTT-formazan assay, protection of T4 lymphocytes (CEM) from HIV-1 cytopathic effects
Assay type: cell-based, human immunodeficiency virus (HIV-1)
Details: Human immunodeficiency virus 1, CCRF-CEM, dose 2.00 × 10^-7 Molar; read-out: Percent of Protection
measuredMetric: inhibition at 0.2 µM (%)

INSERT INTO assay_data (linenotation, number) VALUES
  ('CNc1c(Cl)cccc1S(=O)(=O)c1ccccc1[N+](=O)[O-]', 45.9),
  ('CNc1ccccc1S(=O)(=O)c1ccccc1Cl', -22.6),
  ('O=[N+]([O-])c1ccccc1S(=O)(=O)c1cc(Cl)cc2c1NCCC2', 25.3),
  ('CNc1ccc(Cl)cc1S(=O)(=O)c1ccccc1[N+](=O)[O-]', 76),
  ('CNc1ccc(Cl)cc1S(=O)(=O)c1ccccc1', 0.57),
  ('CN(c1ccccc1Cl)S(=O)(=O)c1ccccc1[N+](=O)[O-]', 2.73),
  ('Cc1cc2c(c(S(=O)(=O)c3ccccc3[N+](=O)[O-])c1)NCCC2', 86.3),
  ('CNc1ccc(S(=O)(=O)c2ccccc2[N+](=O)[O-])cc1C', 53.9),
  ('CNc1ccccc1S(=O)(=O)c1ccc(Cl)cc1OC', 1.18),
  ('CNc1ccc(S(=O)(=O)c2ccccc2[N+](=O)[O-])cc1Cl', 82),
  ('O=S(=O)(c1ccccc1)c1cccc2c1NCCC2', 0.38),
  ('CN(c1ccccc1)S(=O)(=O)c1cccc([N+](=O)[O-])c1', -10.9),
  ('CCNc1ccccc1S(=O)(=O)c1ccccc1[N+](=O)[O-]', 1.5),
  ('Cc1ccc(N(C)S(=O)(=O)c2ccccc2[N+](=O)[O-])cc1', -1.72),
  ('O=[N+]([O-])c1ccccc1S(=O)(=O)c1cccc2c1NCCC2', 6.11);

* * *

System: T4 lymphocytes (CEM cell line)
Test: Cell growth / toxicity control in uninfected T4 lymphocytes (CEM), XTT-formazan
Type: cell-based
Conditions: Homo sapiens, CCRF-CEM, dose 2.00 × 10^-4 Molar; read-out: Percent of Control, Uninfected
measuredMetric: activity at 200 µM

INSERT INTO measurements (compound, experimentalsystem, result) VALUES
  ('CNc1ccc(Cl)cc1S(=O)(=O)c1ccccc1 [Compound 57]', 'T4 lymphocytes (CEM cell line)', '75.9%'),
  ('CNc1ccc(S(=O)(=O)c2ccccc2[N+](=O)[O-])cc1C [Compound 79]', 'T4 lymphocytes (CEM cell line)', '11.9%'),
  ('O=S(=O)(c1ccccc1)c1cccc2c1NCCC2 [Compound 45]', 'T4 lymphocytes (CEM cell line)', '62.1%'),
  ('CNc1ccccc1S(=O)(=O)c1ccc(Cl)cc1OC [Compound 86]', 'T4 lymphocytes (CEM cell line)', '83.9%'),
  ('CN(c1ccccc1Cl)S(=O)(=O)c1ccccc1[N+](=O)[O-] [Compound 38]', 'T4 lymphocytes (CEM cell line)', '3.62%'),
  ('CNc1ccccc1S(=O)(=O)c1ccccc1Cl [Compound 82]', 'T4 lymphocytes (CEM cell line)', '33.9%'),
  ('CNc1ccc(Cl)cc1S(=O)(=O)c1ccccc1[N+](=O)[O-] [Compound 72]', 'T4 lymphocytes (CEM cell line)', '84%'),
  ('CCNc1ccccc1S(=O)(=O)c1ccccc1[N+](=O)[O-] [Compound 81, 2-(2-NITROPHENYLSULFONYL)-N-ETHYLANILINE]', 'T4 lymphocytes (CEM cell line)', '13.7%'),
  ('Cc1ccc(N(C)S(=O)(=O)c2ccccc2[N+](=O)[O-])cc1 [Compound 31]', 'T4 lymphocytes (CEM cell line)', '-0.75%'),
  ('CN(c1ccccc1)S(=O)(=O)c1cccc([N+](=O)[O-])c1 [Compound 14]', 'T4 lymphocytes (CEM cell line)', '41.5%'),
  ('CNc1ccc(S(=O)(=O)c2ccccc2[N+](=O)[O-])cc1Cl [Compound 77]', 'T4 lymphocytes (CEM cell line)', '111%'),
  ('O=[N+]([O-])c1ccccc1S(=O)(=O)c1cccc2c1NCCC2 [Compound 46]', 'T4 lymphocytes (CEM cell line)', '1.77%');

Reference source: patent US6303630A
